All figures here come from ChEMBL document CHEMBL4350992.

target: UniProt:Q96EB6
Sequence (whole entry): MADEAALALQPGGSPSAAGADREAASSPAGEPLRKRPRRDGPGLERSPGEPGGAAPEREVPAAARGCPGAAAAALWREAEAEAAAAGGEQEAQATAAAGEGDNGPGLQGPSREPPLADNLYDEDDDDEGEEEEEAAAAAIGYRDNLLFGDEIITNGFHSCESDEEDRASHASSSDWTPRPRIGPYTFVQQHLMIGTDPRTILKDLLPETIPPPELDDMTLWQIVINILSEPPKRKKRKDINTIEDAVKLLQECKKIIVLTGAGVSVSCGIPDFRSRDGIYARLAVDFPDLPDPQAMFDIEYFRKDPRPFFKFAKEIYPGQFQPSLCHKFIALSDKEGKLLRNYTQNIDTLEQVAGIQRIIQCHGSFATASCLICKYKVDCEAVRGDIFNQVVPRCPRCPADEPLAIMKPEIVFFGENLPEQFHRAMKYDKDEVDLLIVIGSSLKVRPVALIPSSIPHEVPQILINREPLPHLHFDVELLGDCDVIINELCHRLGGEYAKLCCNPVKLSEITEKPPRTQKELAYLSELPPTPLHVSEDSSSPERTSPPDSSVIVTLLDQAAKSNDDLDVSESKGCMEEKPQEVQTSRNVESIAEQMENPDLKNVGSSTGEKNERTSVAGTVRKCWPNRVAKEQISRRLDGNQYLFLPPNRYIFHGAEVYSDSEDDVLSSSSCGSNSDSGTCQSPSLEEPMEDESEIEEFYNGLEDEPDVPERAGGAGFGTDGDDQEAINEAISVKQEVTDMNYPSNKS
test_summary: Inhibition of human N-terminal His-tagged SIRT1 expressed in Escherichia coli at 50 uM using p53 (Arg-His-Lys-Lys(Ac)) (379 to 382 residues) as substrate incubated for 3 hrs measured up to 30 mins by fluorescence assay relative to control
// reported inhibition for each item listed
// note: answer is a bare numeric in %

Example entries begin here.
> print(dat)
                      smiles.representation  experimental.value
1  Cc1cc(C)nc(SCC(=O)Nc2cccc(Nc3ccccc3C(N)=O)c2)n1                  16
2  CCCCCNC(=O)c1ccccc1Nc1cccc(OCCc2ccccc2)c1                   9

We now examine a further compound.
Memo: `O=C(NC1CCN(Cc2ccccc2)CC1)c1ccccc1Nc1cccc(OCCc2ccccc2)c1` , reported inhibition: 8
